- Tested on: NCI-H716 (Colorectal Carcinoma)
- ASSAY_SUMMARY: combination Emax (second highest fraction inhibited in the dose matrix, 72 h); higher = more inhibition; extreme values may be limits of the assay
PARAMETER: combination Emax

# annotated cases, reported combination Emax shown
COMPOUND	combination Emax
NC1(C(=O)N[C@@H](CCO)c2ccc(Cl)cc2)CCN(c2ncnc3[nH]ccc23)CC1 [Capivasertib] + COc1nnc2ccc(N3CCC(c4ccc(OCCN5CCN(C)C(=O)[C@H]5C)cc4)CC3)nn12 [AZD5153] (first compound max 10 µM, 7x7, partner max 1 µM)	0.616
COc1cccc(OCCCN)c1-c1cc(Nc2cnc(C#N)cn2)n[nH]1 [Prexasertib] + CN(C)CCCOc1ccc(-c2ccc3ncc4c(c3c2)n(C2CCOCC2)c(=O)n4C)cn1 [AZD0156] (first compound max 1 µM, 7x7, partner max 1 µM)	0.662

Challenge: So what's the measured combination Emax for this one? CCN(CCO)CCCOc1ccc2c(Nc3cc(CC(=O)Nc4cccc(F)c4)[nH]n3)ncnc2c1 [AZD2811] + O=C(c1cc(Cc2n[nH]c(=O)c3ccccc23)ccc1F)N1CCN(C(=O)C2CC2)CC1 [Olaparib] (first compound max 1 µM, 7x7, partner max 10 µM)
Response given: 0.367

---

- System: JHU-022 (Oral Cavity Carcinoma)
- ASSAY_SUMMARY: combination Emax (second highest fraction inhibited in the dose matrix, 72 h); higher = more inhibition; extreme values may be limits of the assay
Could you please report measured combination Emax for the items listed next?

MOLECULE	PARAMETER	VALUE
Cc1c2c(nn1C)CSCc1cc(n(C)n1)CSc1cc(c3ccccc3c1)OCCCc1c(C(=O)O)n(C)c3c-2c(Cl)ccc13 [AZD5991] + CS(=O)(=O)CCNCc1ccc(-c2ccc3ncnc(Nc4ccc(OCc5cccc(F)c5)c(Cl)c4)c3c2)o1 [Lapatinib] (first compound max 1 µM, 7x7, partner max 10 µM)	combination Emax	0.705

For every item in the list below, what is its measured combination Emax?
1. CC1(C)CCC(CN2CCN(c3ccc(C(=O)NS(=O)(=O)c4ccc(NCC5CCOCC5)c([N+](=O)[O-])c4)c(Oc4cnc5[nH]ccc5c4)c3)CC2)=C(c2ccc(Cl)cc2)C1 [Venetoclax] + C=CCn1c(=O)c2cnc(Nc3ccc(N4CCN(C)CC4)cc3)nc2n1-c1cccc(C(C)(C)O)n1 [AZD1775] (first compound max 1 µM, partner max 1 µM)
2. CC1(C)CCC(CN2CCN(c3ccc(C(=O)NS(=O)(=O)c4ccc(NCC5CCOCC5)c([N+](=O)[O-])c4)c(Oc4cnc5[nH]ccc5c4)c3)CC2)=C(c2ccc(Cl)cc2)C1 [Venetoclax] + C[C@@H]1COCCN1C2=NC(=NC(=C2)C3(CC3)[S@](=N)(=O)C)C4=C5C=CNC5=NC=C4 [AZD6738] (first compound max 1 µM, 7x7, partner max 10 µM)
3. CCc1c2c(nc3ccc(O)cc13)-c1cc3c(c(=O)n1C2)COC(=O)[C@]3(O)CC [SN-38] + CN(C)CCCOc1ccc(-c2ccc3ncc4c(c3c2)n(C2CCOCC2)c(=O)n4C)cn1 [AZD0156] (first compound max 0.3 µM, 7x7, partner max 1 µM)
4. Cc1c2c(nn1C)CSCc1cc(n(C)n1)CSc1cc(c3ccccc3c1)OCCCc1c(C(=O)O)n(C)c3c-2c(Cl)ccc13 [AZD5991] + C[C@@H](Nc1cc(F)cc(F)c1)c1cc(C(=O)N(C)C)cc2c(=O)cc(N3CCOCC3)oc12 [AZD8186] (first compound max 1 µM, 7x7, partner max 3 µM)
5. Cn1cnc2c(F)c(Nc3ccc(Br)cc3Cl)c(C(=O)NOCCO)cc21 [Selumetinib] + CC(C)n1c(=O)n(C)c2cnc3cc(F)c(-c4ccc(OCCCN5CCCCC5)nc4)cc3c21 [AZD1390] (first compound max 10 µM, 7x7, partner max 0.3 µM)
6. COc1nnc2ccc(N3CCC(c4ccc(OCCN5CCN(C)C(=O)[C@H]5C)cc4)CC3)nn12 [AZD5153] + Cc1c2c(nn1C)CSCc1cc(n(C)n1)CSc1cc(c3ccccc3c1)OCCCc1c(C(=O)O)n(C)c3c-2c(Cl)ccc13 [AZD5991] (first compound max 1 µM, 7x7, partner max 1 µM)

Response given:
1: 0.388; 2: 0.593; 3: 0.842; 4: 0.398; 5: 0.497; 6: 0.417
